B1: SPDEF (parent)
chain: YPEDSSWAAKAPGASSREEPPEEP

Variants of: B1
Assay: protein stability index of a GFP-peptide fusion (GPS, HEK-293T) (PSI 1-6); higher = more stable;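 note: lentivirally expressed fusions sorted by FACS into six bins by GFP to DsRed ratio, PSI derived from sequencing read proportions per bin multiplied by bin number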
Settings: c terminus: a fixed tail appended

| alteration | protein stability index |
| --- | --- |
| P12H | 4.11 |
| Y1L | 5.79 |
| S16F | 4.2 |
| E22C | 3.49 |
| S5H | 3.99 |
| P20K | 3.89 |
| P2W | 4.68 |
| E18D | 4.86 |
| S5N | 4.16 |
| A8I | 3.72 |
| G13E | 4.05 |
| S6Y | 3.85 |
| S15F | 2.86 |
